All figures here come from ChEMBL document CHEMBL4393654.

protocol-summary: Clearance in rat at 2 umol/kg, iv
Format: ADME
test-settings: in vivo
endpoint-name: clearance (mL/min/kg)
Respond numerically; units are mL/min/kg and should not be typed.

What does the data say about its clearance? Entry: Cc1cc(-c2ccc(C(=O)[C@@H]3CCCC[C@H]3C(=O)Nc3cnn(C)c3S(N)(=O)=O)cc2)[nH]n1
10

---

protocol-summary: Half life in Beagle dog at 1 umol/kg, iv
Assay type: ADME, Canis lupus familiaris
test-settings: in vivo
endpoint-name: half-life (h)
The answer is to be given in h; state only the numeric part.

What does the record list as half-life for Cc1cc(-c2ccc(C(=O)[C@@H]3CCCC[C@H]3C(=O)Nc3cnn(C)c3C(=O)NOC(C)(C)C)cc2)[nH]n1 ?
7
